Substrate specificity (%), MTGase: recorded values
# Target Desc: MTGase (transglutaminase of guinea pig liver)
# Construct: The guinea pig liver-derived transglutaminase was prepared by the method described in Connellan et al; from tissue; host or cells: guinea pig liver
# Protocol Summary: Substrate specificity: reaction of synthetic substrates with hydroxylamine
# Type: biochemical
# Reported Conditions: Table 9; CBZ-Gln-Gly = 100
Peptide text beside a SMILES is read from it. * marks the point of attachment. Cbz = O=C(OCc1ccccc1)*
Measurement Kind: Substrate specificity (%), MTGase

> print(dat)
                                   compound  assay.result
1  NC(=O)CC[C@H](NC(=O)CNC(=O)OCc1ccccc1)C(=O)NCC(=O)NCC(=O)O [CBZ--Gly--Gln--Gly--Gly] (Cbz-GQGG-OH)           126
2  NC(=O)CC[C@H](NC(=O)OCc1ccccc1)C(=O)O [CBZ--Gln, benzyloxycarbonyl glutamine]             0
3  NCC(=O)N[C@@H](CCC(N)=O)C(=O)NCC(=O)O [Gly--Gln--Gly, glycylglutaminyl glycine] (H-Gly-Gln-Gly-OH)             0
4  NC(=O)CC[C@H](NC(=O)OCc1ccccc1)C(=O)N[C@@H](CCC(N)=O)C(=O)NCC(=O)O [CBZ--Gln--Gln--Gly] (Cbz-Gln-Gln-Gly-OH)           288

---

# Test system: Enzyme No. 83 (transglutaminase of Streptomyces sp No. 83)
# Protocol Summary: Substrate specificity: reaction of synthetic substrates with hydroxylamine
# Type: biochemical
# Reported Conditions: substrate 5 mM; text says BTGase (both enzymes)
Peptide text beside a SMILES is read from it. * marks the point of attachment. Cbz = O=C(OCc1ccccc1)*
Measurement Kind: Reactivity of synthetic substrate with Enzyme No. 83 (in words)

> print(dat)
                                   molecule                               target.desc      assay.result
1     NC(=O)CC[C@H](NC(=O)OCc1ccccc1)C(=O)O  Enzyme No. 83 (transglutaminase of Streptomyces sp No. 83)  No BTGase reacts
2  NC(=O)C[C@H](NC(=O)OCc1ccccc1)C(=O)NCC(=O)O [CBZ--Asn--Gly, benzyloxycarbonylasparaginyl glycine] (Cbz-Asn-Gly-OH)  Enzyme No. 83 (transglutaminase of Streptomyces sp No. 83)  No BTGase reacts
3  NCC(=O)N[C@@H](CCC(N)=O)C(=O)NCC(=O)O [Gly--Gln--Gly, glycylglutaminyl glycine] (H-Gly-Gln-Gly-OH)  Enzyme No. 83 (transglutaminase of Streptomyces sp No. 83)  No BTGase reacts

---

# Target Desc: MTGase (transglutaminase of guinea pig liver)
# Construct: The guinea pig liver-derived transglutaminase was prepared by the method described in Connellan et al; from tissue; host or cells: guinea pig liver
# Sequence (P08587 2-690 limits assumed): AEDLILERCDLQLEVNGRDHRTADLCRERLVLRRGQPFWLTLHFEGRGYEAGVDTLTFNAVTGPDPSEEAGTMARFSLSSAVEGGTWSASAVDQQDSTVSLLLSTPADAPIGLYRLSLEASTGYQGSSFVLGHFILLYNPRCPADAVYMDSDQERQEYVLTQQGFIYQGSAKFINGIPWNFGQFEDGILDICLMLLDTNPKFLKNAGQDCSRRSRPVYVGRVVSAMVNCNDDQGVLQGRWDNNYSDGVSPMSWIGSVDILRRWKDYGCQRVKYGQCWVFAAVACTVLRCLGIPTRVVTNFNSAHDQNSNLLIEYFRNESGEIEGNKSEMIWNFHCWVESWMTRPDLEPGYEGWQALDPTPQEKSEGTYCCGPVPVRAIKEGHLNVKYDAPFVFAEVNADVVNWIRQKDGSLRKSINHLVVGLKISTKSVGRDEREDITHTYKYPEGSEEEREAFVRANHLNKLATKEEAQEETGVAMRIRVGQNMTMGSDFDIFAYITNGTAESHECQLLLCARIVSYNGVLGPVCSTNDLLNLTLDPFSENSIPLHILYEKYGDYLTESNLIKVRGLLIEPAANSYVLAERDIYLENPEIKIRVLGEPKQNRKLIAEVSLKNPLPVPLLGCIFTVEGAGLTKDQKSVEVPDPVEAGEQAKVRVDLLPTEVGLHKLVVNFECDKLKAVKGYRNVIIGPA
# Protocol Summary: Substrate specificity: reaction of synthetic substrates with hydroxylamine
# Assay type: biochemical
# Reported Conditions: Table 9; CBZ-Gln-Gly = 100
Peptide text beside a SMILES is read from it. * marks the point of attachment. Cbz = O=C(OCc1ccccc1)*
Measurement Kind: Substrate specificity (%), MTGase

> print(dat)
                                   compound  assay.result
1  NC(=O)CC[C@H](NC(=O)OCc1ccccc1)C(=O)NCC(=O)O [CBZ--Gln--Gly, benzyloxycarbonylglutaminyl glycine] (Cbz-Gln-Gly-OH)           100
2  CCOC(=O)CNC(=O)[C@H](CCC(N)=O)NC(=O)OCc1ccccc1 [CBZ--Gln--Gly--OEt] (Cbz-Gln-Gly-OEt)           122
3  NC(=O)C[C@H](NC(=O)OCc1ccccc1)C(=O)NCC(=O)O [CBZ--Asn--Gly, benzyloxycarbonylasparaginyl glycine] (Cbz-Asn-Gly-OH)             0

---

# Test system: Enzyme No. 466 (transglutaminase of Streptomyces lavendulae No. 466)
# Protocol Summary: Substrate specificity: reaction of synthetic substrates with hydroxylamine
# Assay type: biochemical
# Reported Conditions: substrate 5 mM; text says BTGase (both enzymes)
Peptide text beside a SMILES is read from it. * marks the point of attachment. Cbz = O=C(OCc1ccccc1)*
Measurement Kind: Reactivity of synthetic substrate with Enzyme No. 466 (in words)

> print(dat)
                                   molecule      assay.result
1     NC(=O)CC[C@H](NC(=O)OCc1ccccc1)C(=O)O  No BTGase reacts
2  NC(=O)C[C@H](NC(=O)OCc1ccccc1)C(=O)NCC(=O)O [CBZ--Asn--Gly, benzyloxycarbonylasparaginyl glycine] (Cbz-Asn-Gly-OH)  No BTGase reacts
3  NCC(=O)N[C@@H](CCC(N)=O)C(=O)NCC(=O)O [Gly--Gln--Gly, glycylglutaminyl glycine] (H-Gly-Gln-Gly-OH)  No BTGase reacts

---

# Tested on: Enzyme No. 83 (transglutaminase of Streptomyces sp No. 83)
# Protocol Summary: Substrate specificity: reaction of synthetic substrates with hydroxylamine
# Format: biochemical
# Reported Conditions: Table 6; synthetic substrate 5 mM; CBZ-Gln-Gly = 100
Peptide text beside a SMILES is read from it. * marks the point of attachment. Cbz = O=C(OCc1ccccc1)*
Measurement Kind: Substrate specificity, Enzyme No. 83 (reactivity of substrate with hydroxylamine)

> print(dat)
                                   molecule                               target.desc  assay.result
1  NC(=O)CC[C@H](NC(=O)OCc1ccccc1)C(=O)NCC(=O)O [CBZ--Gln--Gly, benzyloxycarbonylglutaminyl glycine] (Cbz-Gln-Gly-OH)  Enzyme No. 83 (transglutaminase of Streptomyces sp No. 83)           100
2  NC(=O)CC[C@H](NC(=O)OCc1ccccc1)C(=O)N[C@@H](CCC(N)=O)C(=O)NCC(=O)O [CBZ--Gln--Gln--Gly] (Cbz-Gln-Gln-Gly-OH)  Enzyme No. 83 (transglutaminase of Streptomyces sp No. 83)            49
3  CCOC(=O)CNC(=O)[C@H](CCC(N)=O)NC(=O)OCc1ccccc1 [CBZ--Gln--Gly--OEt] (Cbz-Gln-Gly-OEt)  Enzyme No. 83 (transglutaminase of Streptomyces sp No. 83)            61
4     NC(=O)CC[C@H](NC(=O)OCc1ccccc1)C(=O)O  Enzyme No. 83 (transglutaminase of Streptomyces sp No. 83)             0
5  NCC(=O)N[C@@H](CCC(N)=O)C(=O)NCC(=O)O [Gly--Gln--Gly, glycylglutaminyl glycine] (H-Gly-Gln-Gly-OH)  Enzyme No. 83 (transglutaminase of Streptomyces sp No. 83)             0
6  NC(=O)CC[C@H](NC(=O)CNC(=O)OCc1ccccc1)C(=O)NCC(=O)NCC(=O)O [CBZ--Gly--Gln--Gly--Gly] (Cbz-GQGG-OH)  Enzyme No. 83 (transglutaminase of Streptomyces sp No. 83)            10
7  NC(=O)C[C@H](NC(=O)OCc1ccccc1)C(=O)NCC(=O)O [CBZ--Asn--Gly, benzyloxycarbonylasparaginyl glycine] (Cbz-Asn-Gly-OH)  Enzyme No. 83 (transglutaminase of Streptomyces sp No. 83)             0
